Origin of measurements: patent US9573913B2

Target or system: human cathepsin K (UniProt P43236)
Test protocol: Cathepsin K Assay (hrbCat K)
Assay type: biochemical
Applied conditions: Z-Leu-Arg-AMC substrate, pH 5.5, 15 min preincubation; read-out: hrbCat K (IP (nM))
Reported endpoint: IC50 (nM)

Illustrative cases are given below, each with its answer.
>  <Molecule>
N#CC1(NC(=O)[C@@H]2CCCC[C@H]2c2nc(-c3cccnc3)sc2-c2ccc(N3CCS(=O)(=O)C4(CC4)C3)cc2)CC1

>  <IC50 (nM)>
2.3

$$$$
>  <Molecule>
CS(=O)(=O)C1CN(c2ccc(-c3sc(-c4cccnc4)nc3[C@@H]3CCCC[C@H]3C(=O)NC3(C#N)CC3)cc2)C1

>  <IC50 (nM)>
2.2

$$$$
>  <Molecule>
Cc1nc(C2CCCCC2C(=O)NCC#N)c(-c2ccc(C(=O)N3CCOCC3)cc2)s1 (racemic)

>  <IC50 (nM)>
38.2

$$$$

[P] C[C@@H](C#N)NC(=O)[C@@H]1C[C@@H](F)CC[C@H]1c1nc(-c2ccc(F)cn2)sc1-c1ccc(N2CCS(=O)(=O)CC2)cc1 [Compound 8]
[Q] Cc1nc([C@@H]2CCCC[C@H]2C(=O)NCC#N)c(-c2ccc(N3CCS(=O)(=O)CC3)cc2)s1
[R] CN=S1(=O)CCN(c2ccc(-c3sc(-c4ccc(F)cn4)nc3[C@@H]3CCCC[C@H]3C(=O)NC3(C#N)CC3)cc2)CC1
[S] CC1(C)CC(c2nc([C@@H]3CCCC[C@H]3C(=O)NC3(C#N)CC3)c(-c3ccc(N4CCS(=O)(=O)CC4)cc3)s2)CC(C)(C)O1
Please list the entries, largest IC50 first. State the ranking by listing the labels in the requested order.
S, R, Q, P
(S: 14.1 nM, R: 3.3 nM, Q: 2 nM, P: 1.3 nM)

[1] CN=S1(=O)CCN(c2ccc(-c3oc(C(C)(C)C)nc3[C@@H]3CC[C@H](F)C[C@H]3C(=O)N[C@@H](C)C#N)cc2)CC1
[2] N#CC1(NC(=O)[C@@H]2CCCC[C@H]2c2nc(-c3cc(F)cc(F)c3)sc2-c2ccc(N3CCS(=O)(=O)CC3)cc2)CC1
[3] CC(C)(C)c1ccc(-c2nc([C@@H]3CCCC[C@H]3C(=O)NC3(C#N)CC3)c(-c3ccc(N4CCS(=O)(=O)CC4)cc3)s2)cn1
Please list the entries, largest IC50 first. State the ranking by listing the labels in the requested order.
1, 3, 2
